test system: bamyardgrass; experiment: Test B flood test barnyardgrass; format: in vivo, Echinochloa crus-galli; conditions: Rate 62 g/ha, headed Pre-emergence (flood test species); scale 0 to 10 (0 no effect, 10 complete control)
Measured property: Barnyardgrass plant response rating
Answers are plain numbers.

Compound	Assayed system	Barnyardgrass plant response rating
CC(C)N(C(=O)n1oc(=O)n(CC(=O)OC(C)(C)C)c1=O)c1ccc(F)cc1	bamyardgrass	0
CC(C)N(C(=O)n1oc(=O)n(CCC(F)=C(F)F)c1=O)c1ccc(F)cc1	bamyardgrass	0
CCC(CC)N(C(=O)n1oc(=O)n(-c2ccccc2C)c1=O)c1ccc(F)cc1	bamyardgrass	0
CC(C)N(C(=O)n1oc(=O)n(CC2(C)COC2)c1=O)c1ccc(F)cc1	bamyardgrass	0
CC(C)C(C)n1c(=O)on(C(=O)N(c2ccc(F)cc2)C(C)C)c1=O (stereo not drawn)	bamyardgrass	3

Value wanted: Barnyardgrass plant response rating (bamyardgrass) of entry CCN(CC)C(=O)n1oc(=O)n(C2CC2)c1=O
0

###

Give measured Giant foxtail plant response rating for each item. Keep answers brief.
Test system: giant foxtail
Assay: Test B pre/postemergence giant foxtail
Assay type: in vivo, Setaria faberii
Conditions: Rate 62 g/ha, Postemergence; scale 0 to 10 (0 no effect, 10 complete control)
Experimental: […] At the same time, these crop and weed species were also treated with postemergence applications of test chemicals formulated in the same manner. […] Treated plants and controls were maintained in a greenhouse for twelve to sixteen days, after which all species were compared to controls and visually evaluated. […]
One number for each entry.

Solved cases below.
Compound	Result
CC(C)N(C(=O)n1oc(=O)n(-c2ccc3ccccc3c2)c1=O)c1ccc(F)cc1F	0
CC(C)N(C(=O)n1oc(=O)n(C(C)C(=O)N(C)C)c1=O)c1ccc(Cl)cc1 (stereo not shown)	3
CC(C)N(C(=O)n1oc(=O)n(CCC[Si](C)(C)C)c1=O)c1ccc(F)cc1	0

Now take the following compound into account.
Value wanted: Giant foxtail plant response rating (giant foxtail) of entry COC(=O)C(C)n1c(=O)on(C(=O)N(c2ccc(F)cc2F)C(C)C)c1=O (stereo not shown)
0

###

test system: corn; assay: Test B pre/postemergence corn; type: in vivo, Zea mays; settings: Preemergence, Rate 250 g/ha; scale 0 to 10, 0 is no effect, 10 is complete control
Measured property: Corn plant response rating
Numbers only.

Molecule	Result
CC(C)N(C(=O)n1oc(=O)n(CC2=NOCCC2)c1=O)c1ccc(Cl)cc1	0

// batch mode: one Corn plant response rating value per listed entry
1. CC(C)N(C(=O)n1oc(=O)n(C2CCOCC2)c1=O)c1ccccc1
2. CC(C)Cn1c(=O)on(C(=O)N(c2ccc(Cl)cc2)C(C)C)c1=O
3. Cc1ccccc1-n1c(=O)on(C(=O)N(c2ccc(Cl)cc2F)C(C)C)c1=O
4. Cc1cnn(C)c1-n1c(=O)on(C(=O)N(c2ccc(F)cc2)C(C)C)c1=O
5. CCOC(=O)CC(C(=O)OCC)n1c(=O)on(C(=O)N(c2ccc(F)cc2F)C(C)C)c1=O (centres unmarked)
6. CC(C)N(C(=O)n1oc(=O)n(C(C)C(=O)N(C)C)c1=O)c1ccc(Cl)cc1 (centres unmarked)
7. COCC(OC)n1c(=O)on(C(=O)N(c2ccc(F)cc2)C(C)C)c1=O (centres unmarked)

1: 3; 2: 0; 3: 0; 4: 0; 5: 0; 6: 0; 7: 2
